- test.name: modulators of CD8 T cell-vesicle binding, confirmation, cherry-picked primary hits, two concentrations (AID 2810);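 note: lower values mean blocking of vesicle binding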
- cond: 2C CD8+ T cell-vesicle binding, flow cytometry; CD8+/vesicle+ events; at 15.4 µM; stronger effect = lower value
Out of some 1,200 compounds screened, about 65 (5%) were called active. The entries come from a sample that favours actives as a whole.
Provide the recorded double positive events for the entries that follow.
Only the number, expressed in %, is required.

Query: For the compound shown here, `COc1ccc(NC(=O)CN2CCN(S(=O)(=O)c3ccc(Cl)cc3)CC2)cc1` , give the reported double positive events.
Reply: 12

Query: For the compound shown here, O=C(c1ccco1)N1CCN(C(c2ccccc2Cl)c2nnnn2Cc2ccco2)CC1 (configuration not stated) , give the reported double positive events.
Reply: 6.3

Query: For the compound shown here, COc1ccc(F)c(CN2CCC(n3nccc3NC(=O)C3CCOC3)CC2)c1 (configuration not stated) , give the reported double positive events.
Reply: 10.9

Query: For the compound shown here, `Cc1ccc(CN2CC(=O)N3[C@H]4c5cc(C)ccc5OC[C@@H]4[C@H](c4ccccc4)[C@]3(C)C2=O)cc1` , give the reported double positive events.
Reply: 11.2

Query: For the compound shown here, `COc1ccccc1NS(=O)(=O)c1ccc(C)c(NC(=O)c2ccc(S(=O)(=O)N3CCCCCC3)cc2)c1` , give the reported double positive events.
Reply: 35.5

Query: For the compound shown here, `COc1ccc(NC(=O)Cc2ccc(C)c(C)c2)cc1S(=O)(=O)N1CCCCC1` , give the reported double positive events.
Reply: 10.7

Query: For the compound shown here, `COC(=O)[C@]1(C)N[C@H](CN(C)S(=O)(=O)c2ccc(OC(F)(F)F)cc2)[C@@H]2C(=O)N(C)C(=O)[C@@H]21` , give the reported double positive events.
Reply: 26.1

Query: For the compound shown here, O=C(NCCC1=CCCCC1)C(=O)NCC(c1ccco1)N1CCN(c2ccccc2F)CC1 (configuration not stated) , give the reported double positive events.
Reply: 10.7

Query: For the compound shown here, `CC(C)(C)NC(=O)COc1ccc(CNCc2ccccn2)cc1` , give the reported double positive events.
Reply: 5.1

Query: For the compound shown here, `Cc1ccc(S(=O)(=O)N2CCN(CCOc3c(Cl)cccc3Cl)CC2)cc1C` , give the reported double positive events.
Reply: 18.9

Query: For the compound shown here, `CCCCNS(=O)(=O)c1ccc(OCC(=O)OC)cc1` , give the reported double positive events.
Reply: 20

Query: For the compound shown here, O=C(O)C1CCC(Cn2c(SCc3cc(=O)n4cc(Cl)ccc4n3)nc3ccsc3c2=O)CC1 (configuration not stated) , give the reported double positive events.
Reply: 9

Query: For the compound shown here, COc1ccc(OC)c(C(c2nnnn2CCC(C)C)N2CCN(C(=O)c3ccco3)CC2)c1 (configuration not stated) , give the reported double positive events.
Reply: 30.5

Query: For the compound shown here, `O=C(c1ccco1)N1CCN(c2ncccn2)CC1` , give the reported double positive events.
Reply: 11.7

Query: For the compound shown here, COc1ccc(CN2C(=O)C(C)Nc3ncnc(N4CCN(c5ccccn5)CC4)c32)cc1 (configuration not stated) , give the reported double positive events.
Reply: 4.1

Query: For the compound shown here, `CCOC(=O)c1cnc2nc(C)nn2c1N` , give the reported double positive events.
Reply: 10.6

Query: For the compound shown here, `CCOC(=O)c1ccc(S(=O)(=O)N2CCN(C3CCCC3)CC2)cc1` , give the reported double positive events.
Reply: 23.3

Query: For the compound shown here, `NC(=O)CCS(=O)(=O)CCN1CCN(S(=O)(=O)c2ccc3c(c2)CCC3)CC1` , give the reported double positive events.
Reply: 7.7

Query: For the compound shown here, `Cc1ccc(C)c(OC(=O)c2cncc(Br)c2)c1` , give the reported double positive events.
Reply: 15.8

Query: For the compound shown here, `COc1ccccc1NS(=O)(=O)c1cc(NC(=O)CNC(=O)c2cc(C)cc(C)c2)ccc1C` , give the reported double positive events.
Reply: 0.9

Query: For the compound shown here, `COc1ccccc1NC(=O)Cn1cnc2sc(C)c(S(=O)(=O)N3CCCCC3)c2c1=O` , give the reported double positive events.
Reply: 5.5

Query: For the compound shown here, `COc1ccc([N+](=O)[O-])cc1N(CC(=O)O)S(C)(=O)=O` , give the reported double positive events.
Reply: 19.3

Query: For the compound shown here, `CC(C)(C)NC(=O)CON=C1c2ccccc2-c2ccccc21` , give the reported double positive events.
Reply: 30.6

Query: For the compound shown here, `CCCCn1c(N)c(N(CCOC)C(=O)c2c(CC)noc2C)c(=O)[nH]c1=O` , give the reported double positive events.
Reply: 14.5

Query: For the compound shown here, `CCCNC(=O)c1nc2ncc(Br)cn2n1` , give the reported double positive events.
Reply: 1

Query: For the compound shown here, `Cc1ccc(C(=O)Nc2cccc(-c3cn4ccccc4n3)c2)cc1` , give the reported double positive events.
Reply: 10.4

Query: For the compound shown here, `COc1ccc(-c2cc(CNS(=O)(=O)c3ccc(NC(C)=O)cc3)on2)cc1` , give the reported double positive events.
Reply: 2.2

Query: For the compound shown here, `COc1cc(CNCCc2ccc(S(N)(=O)=O)cc2)ccc1OCC(=O)N1CCCCC1` , give the reported double positive events.
Reply: 19.2

Query: For the compound shown here, COCC(C)NC(=O)CSc1nc2cc(S(=O)(=O)N3CCCCC3)ccc2o1 (configuration not stated) , give the reported double positive events.
Reply: 13.6

Query: For the compound shown here, `Nc1nnc(SCCOc2ccc(Br)cc2)s1` , give the reported double positive events.
Reply: 15.9

Query: For the compound shown here, `COc1ccc(Cc2nc(-c3ccccn3)no2)cc1` , give the reported double positive events.
Reply: 19.8

Query: For the compound shown here, `CC(C)(C)NC(=O)COc1ccc(CNCc2cccnc2)cc1` , give the reported double positive events.
Reply: 21.6

From: PubChem BioAssay AID2810
